# assayed-system: T1, ZIKV (prM80E) with a C-terminal myc-myc-hexahistidine tag (Zika virus, UniProt A0A024B7W1 104-694)
# T1 construct: also called ZIKV (prM80E)-mmH; ZIKV-mmH
# measurement-notes: SPR, mAb captured, 25C
outcome-measure: Kd (pM)
Give the value, in units of pM, as a plain number.

Take a look at these entries with their results.
binder	Kd, pM
H4H25637P (antibody, V domains shown) VH: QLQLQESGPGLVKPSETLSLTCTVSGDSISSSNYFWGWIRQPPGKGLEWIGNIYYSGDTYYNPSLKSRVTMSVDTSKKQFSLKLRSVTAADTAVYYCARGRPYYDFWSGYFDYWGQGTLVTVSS VL: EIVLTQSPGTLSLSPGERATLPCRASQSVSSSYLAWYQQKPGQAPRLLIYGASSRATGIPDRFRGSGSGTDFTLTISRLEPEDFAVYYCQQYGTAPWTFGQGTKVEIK	6330
H4H25704N (antibody, V domains shown) VH: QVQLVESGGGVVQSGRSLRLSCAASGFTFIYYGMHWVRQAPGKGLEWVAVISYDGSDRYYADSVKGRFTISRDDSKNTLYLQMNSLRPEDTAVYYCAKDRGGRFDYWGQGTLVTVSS VL: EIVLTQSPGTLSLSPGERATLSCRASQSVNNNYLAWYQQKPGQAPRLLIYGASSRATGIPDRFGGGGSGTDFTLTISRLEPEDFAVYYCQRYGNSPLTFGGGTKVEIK	270
H4H25602P (antibody, V domains shown) VH: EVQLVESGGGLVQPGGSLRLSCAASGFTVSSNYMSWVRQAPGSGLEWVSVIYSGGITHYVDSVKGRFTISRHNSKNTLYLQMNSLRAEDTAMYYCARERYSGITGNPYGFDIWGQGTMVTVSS VL: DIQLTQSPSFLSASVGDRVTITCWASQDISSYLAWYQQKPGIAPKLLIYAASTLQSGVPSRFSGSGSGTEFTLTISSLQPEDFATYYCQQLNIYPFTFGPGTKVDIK	70
H4H25703N (antibody, V domains shown) VH: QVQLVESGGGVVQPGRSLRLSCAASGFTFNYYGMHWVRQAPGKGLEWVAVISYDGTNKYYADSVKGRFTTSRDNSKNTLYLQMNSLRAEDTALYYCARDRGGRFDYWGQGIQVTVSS VL: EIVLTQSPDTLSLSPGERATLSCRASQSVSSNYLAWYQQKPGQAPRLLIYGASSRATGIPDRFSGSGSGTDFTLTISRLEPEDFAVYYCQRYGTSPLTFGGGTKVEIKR	542
H4H25619P (antibody, V domains shown) VH: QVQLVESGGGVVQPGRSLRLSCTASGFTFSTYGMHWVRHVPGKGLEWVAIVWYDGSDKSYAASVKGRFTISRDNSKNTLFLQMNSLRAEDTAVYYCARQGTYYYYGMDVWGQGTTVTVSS VL: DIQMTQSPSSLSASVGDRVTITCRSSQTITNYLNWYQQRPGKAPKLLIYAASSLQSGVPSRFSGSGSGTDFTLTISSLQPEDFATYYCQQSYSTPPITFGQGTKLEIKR	3140

Ask: Fill in: Kd of H4H25598P (antibody, V domains shown) VH: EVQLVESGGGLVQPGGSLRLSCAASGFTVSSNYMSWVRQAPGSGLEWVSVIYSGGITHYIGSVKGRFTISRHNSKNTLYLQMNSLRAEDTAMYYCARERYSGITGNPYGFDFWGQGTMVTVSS VL: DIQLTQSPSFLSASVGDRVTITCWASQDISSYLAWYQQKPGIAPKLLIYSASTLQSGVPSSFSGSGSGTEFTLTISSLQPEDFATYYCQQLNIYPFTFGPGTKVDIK is ___
Reply: 156

The reported numbers originate from patent US20180016324A1.
